- PROCEDURE_DETAILS: LD50 toxicity test, intraperitoneal injection in mice
- Assay type: in vivo
- EXPERIMENTAL_PARAMETERS: mouse, in vivo, ip, read-out: LD50 level
OBSERVATION_TYPE: LD50

INSERT INTO measurements (smiles_entry, observation_type, value_measured) VALUES
  ('N=C(N)NCCC[C@H](NC(=O)[C@@H](N)CCCNC(=N)N)C(=O)NCCN(CCNC(=O)[C@H](CCCNC(=N)N)NC(=O)[C@@H](N)CCCNC(=N)N)CCNC(=O)[C@H](CCCNC(=N)N)NC(=O)[C@@H](N)CCCNC(=N)N', 'LD50', '125 mg/kg');
